- assay-details: Compound was evaluated for the inhibition of Aminoimidazole carboxamide ribonucleotide formyl transferase (AICAR) with (6R) tetrahydrofolate as substrate
measured-endpoint: IC50

Task: Which IC50 is reported for this compound? "Cc1c2cnc3nc(N)[nH]c(=O)c3c2c(C)n1C"
Output: > 95 µM
